This section lists MIC readings for C. albicans ATCC 24433.

Please review the entries below; each comes with its answer.
INSERT INTO assay_data (molecule, observed_measurement) VALUES
  ('CCN(CC)c1ccc2cc(C(=O)NCC(O)(Cn3ccnn3)c3ccc(F)cc3F)c(=O)oc2c1 (centres unmarked)', '> 64 µg/mL'),
  ('CCN(CC)c1ccc2cc(C(=O)NCC(O)(Cn3cncn3)c3ccc(F)cc3F)c(=O)oc2c1 (centres unmarked)', '0.03 µg/mL'),
  ('CCC(C)n1ncn(-c2ccc(N3CCN(c4ccc(OCC5COC(Cn6cncn6)(c6ccc(Cl)cc6Cl)O5)cc4)CC3)cc2)c1=O (centres unmarked) [ITR, itraconazole, reference compound]', '0.015 µg/mL');

Below are some molecules; for each one, tell me its MIC.
1. CCN(CC)c1ccc2cc(C(=O)NCC(O)(Cn3ccnn3)c3ccc(Cl)cc3Cl)c(=O)oc2c1 (centres unmarked)
2. OC(Cn1cncn1)(Cn1cncn1)c1ccc(F)cc1F [FLC, fluconazole, reference compound]

result:
1. > 64 µg/mL
2. 0.5 µg/mL
